Reported RP-LC retention time values for the following compounds.
assay: gradient 5% acetonitrile 3 min, to 50% in 2 min, to 85% in 15 min, held 3 min, 100 µL/min; conditions: column: Zorbax Extend-C18 2.1 x 50 mm; eluents: water / acetonitrile, 0.1% formic acid
Respond with the bare value in s.

Reference set, count: 2
The compound listed as CCOc1ccc(NC(=O)Nc2cccc(-c3ccc(N4CCCCC4)nn3)c2)cc1 has a reported RP-LC retention time of 740

The compound listed as Cc1cccc(NC(=O)NCC(c2cccnc2)c2c[nH]c3ccccc23)c1 (stereo not given) has a reported RP-LC retention time of 673

Further cases:
The compound listed as CCC(=O)N1CCc2cc(N3CC(C(=O)Nc4ccc(C(C)=O)cc4)CC3=O)ccc21 (stereo not given) has a reported RP-LC retention time of 717

The compound listed as CC(=O)c1ccc(NC(=O)CC2COc3ccccc3NC2=O)cc1 (stereo not given) has a reported RP-LC retention time of 677

The compound listed as O=C(Nc1ccc(N2CCOCC2)cc1)c1cn2c(n1)CSCC2 has a reported RP-LC retention time of 600

###

assay: gradient 5% acetonitrile 3 min, to 50% in 2 min, to 85% in 15 min, held 3 min, 100 µL/min; details: column: Zorbax Extend-C18 2.1 x 50 mm; eluents: water / acetonitrile, 0.1% formic acid
Label condition met for high-side RP-LC retention time (at or above 900 s) and condition not met for low-side RP-LC retention time (below it).

Use the examples below as a reference point.
Ask: Hi team, for Cc1cc(C(=O)Nc2nnc(-c3csc(C)n3)o2)c(C)o1 , is the recorded RP-LC retention time at or above 900 s?
Reply: condition not met

Ask: Hi team, for O=C(N[C@@H]1CN(Cc2ccccn2)C[C@H]1CO)C1(c2ccccc2)CC1 , is the recorded RP-LC retention time at or above 900 s?
Reply: condition not met

Ask: Hi team, for CCn1cc(CCN2CCC(C(=O)N(C)C)CC2)c2cccnc21 , is the recorded RP-LC retention time at or above 900 s?
Reply: condition not met

Ask: Hi team, for CCc1noc(C2(NC(=O)c3ccc(F)c(Cl)c3)CCCCC2)n1 , is the recorded RP-LC retention time at or above 900 s?
Reply: condition met

Ask: Hi team, for Cc1ccc(C2Cn3cnc(C(=O)N4CCC(C(=O)NCCC5=CCCCC5)CC4)c3CO2)cc1 (stereo not given) , is the recorded RP-LC retention time at or above 900 s?
Reply: condition not met

Ask: Hi team, for CCCc1noc(-c2nnn3c2COC(c2ccc(F)cc2)C3)n1 (stereo not given) , is the recorded RP-LC retention time at or above 900 s?
Reply: condition met

Further cases:
Ask: Hi team, for CCc1ccc(N2C(=O)C3N=NN(c4ccc(Br)c(C)c4)C3C2=O)cc1 (stereo not given) , is the recorded RP-LC retention time at or above 900 s?
Reply: condition met

Ask: Hi team, for COc1ccc(-c2nc3cnccn3c2NCCC(=O)NC(C)C)cc1 , is the recorded RP-LC retention time at or above 900 s?
Reply: condition not met

Ask: Hi team, for Cc1nc(-c2ccccc2)sc1C(=O)Nc1nc(-c2ccccc2)c(C)s1 , is the recorded RP-LC retention time at or above 900 s?
Reply: condition met

###

assay: gradient 5% acetonitrile 3 min, to 50% in 2 min, to 85% in 15 min, held 3 min, 100 µL/min; settings: column: Zorbax Extend-C18 2.1 x 50 mm; eluents: water / acetonitrile, 0.1% formic acid
resultType: RP-LC retention time (s)
Respond with the bare value in s.

The molecule listed as O=C(C1CCCN(c2nc3ccccc3n3cccc23)C1)N1CCN(c2ccc(F)cc2)CC1 (stereo not given) has a reported RP-LC retention time of 805

The molecule listed as CCCCOc1ccc(CNC(=O)C2CCCN(c3nccc(C)n3)C2)cc1 (stereo not given) has a reported RP-LC retention time of 930

The molecule listed as CCC(C)NC(=O)CCn1c(=O)c2ccccc2n2c(=O)n(Cc3ccccc3F)nc12 (stereo not given) has a reported RP-LC retention time of 884

Further cases:
The molecule listed as O=C(CN1CCN(Cc2cccc(Cl)c2)C1=O)NCc1ccc(N2CCCC2)cc1 has a reported RP-LC retention time of 854

The molecule listed as CCOc1ccc(-c2noc(Cn3c(=O)n(CCCOC)c(=O)c4ccccc43)n2)cc1 has a reported RP-LC retention time of 1050

The molecule listed as Cc1ccc2c(=O)c3c([nH]c2c1C)CCN(CC(=O)NCc1ccccc1F)C3 has a reported RP-LC retention time of 621

The molecule listed as Cc1ccc(N2CCN(S(=O)(=O)c3cc4c(s3)CCN(C(=O)C3CC3)C4)CC2)cc1 has a reported RP-LC retention time of 1020

The molecule listed as COCc1cc(=O)n(CC(=O)Nc2ccc(C)c(C)c2)c(N)n1 has a reported RP-LC retention time of 647

The molecule listed as CCN(c1ccccc1)S(=O)(=O)c1cc(-c2[nH]ncc2C(=O)N2CCCCC2)oc1C has a reported RP-LC retention time of 822

The molecule listed as COc1ccc(Cc2nnc3sc(-c4ccc(OC)cc4OC)nn23)cc1 has a reported RP-LC retention time of 1030

The molecule listed as Cc1c(OCC(N)=O)ccc2c1O/C(=C\c1ccc3c(c1)OCO3)C2=O has a reported RP-LC retention time of 714

The molecule listed as O=C(Cc1csc(NC(=O)c2ccccc2)n1)Nc1ccc(F)c(Cl)c1 has a reported RP-LC retention time of 869

The molecule listed as O=c1c(NCC2CCCCC2)nc2ccncc2n1Cc1ccccc1 has a reported RP-LC retention time of 784

The molecule listed as O=C(c1cnccn1)N1CCC(Oc2nc3ccccc3s2)CC1 has a reported RP-LC retention time of 755

The molecule listed as COCCCNc1c(-c2cccc(F)c2)nc2sc(C(=O)N(C)C)c(C)n12 has a reported RP-LC retention time of 776

The molecule listed as CC(C)NC(=O)C1CCN(c2nc3ccc(-c4ccccc4F)nc3s2)CC1 has a reported RP-LC retention time of 915

The molecule listed as COc1ccc(OCc2noc(CNC(=O)c3cc(-c4ccco4)on3)n2)cc1 has a reported RP-LC retention time of 832

The molecule listed as CN1C(=O)CCC2(CNC(=O)c3cccn3C)CCC=C12 (stereo not given) has a reported RP-LC retention time of 720

The molecule listed as O=C(CC1CCCC1)N1CCC(c2noc(-c3cnccn3)n2)C1 (stereo not given) has a reported RP-LC retention time of 726

The molecule listed as Cc1noc(CNC(=O)CN(C)c2nc3c(C)ccc(C)c3s2)n1 has a reported RP-LC retention time of 772

###

Reported RP-LC retention time values for the following molecules.
test: gradient 5% acetonitrile 3 min, to 50% in 2 min, to 85% in 15 min, held 3 min, 100 µL/min; conditions: column: Zorbax Extend-C18 2.1 x 50 mm; eluents: water / acetonitrile, 0.1% formic acid
Respond with the bare value in s.

Reference set, count: 3
The molecule listed as CC(C)Cc1nc2cccnc2n1C1CCN(C(=O)Nc2ccccc2)CC1 has a reported RP-LC retention time of 677

The molecule listed as Cc1nc(-c2cn(C)c3ncccc23)sc1C(=O)NCc1ccccc1C(F)(F)F has a reported RP-LC retention time of 998

The molecule listed as CCCN(CCC)[C@@H]1CCc2ccc(O)cc2C1 has a reported RP-LC retention time of 671

Now for a further molecule.
The molecule listed as Cn1nnc2c(N3CCN(C(=O)Nc4ccccc4C#N)CC3)ncnc21 has a reported RP-LC retention time of 626

###

test: gradient 5% acetonitrile 3 min, to 50% in 2 min, to 85% in 15 min, held 3 min, 100 µL/min; conditions: column: Zorbax Extend-C18 2.1 x 50 mm; eluents: water / acetonitrile, 0.1% formic acid
Label criterion met for high-side RP-LC retention time (at or above 800 s) and criterion not met for low-side RP-LC retention time (below it).

Ask: Hi team, for Cc1ccc(-c2noc(-c3cccc(S(=O)(=O)NCCN4CCC(C)CC4)c3)n2)cc1 , is the recorded RP-LC retention time at or above 800 s?
Reply: criterion met

Ask: Hi team, for CCN1CCC(N(Cc2ccc3c(c2)OCO3)C(=O)Nc2ccc(F)cc2)CC1 , is the recorded RP-LC retention time at or above 800 s?
Reply: criterion not met

Ask: Hi team, for CCn1cc(-c2nc(C(=O)Nc3cc(OC)cc(OC)c3)cs2)c2cccnc21 , is the recorded RP-LC retention time at or above 800 s?
Reply: criterion met

Ask: Hi team, for CCc1nc(-c2csc(S(=O)(=O)N3CCC(C(=O)NCc4ccc(F)cc4)CC3)c2)no1 , is the recorded RP-LC retention time at or above 800 s?
Reply: criterion met

Ask: Hi team, for O=S1(=O)N(Cc2cccc(F)c2)CCCN1Cc1ccccc1Cl , is the recorded RP-LC retention time at or above 800 s?
Reply: criterion met

Further cases:
Ask: Hi team, for O=C(Cn1ncccc1=O)N1CCN(c2ccc(-c3ccccn3)nn2)CC1 , is the recorded RP-LC retention time at or above 800 s?
Reply: criterion not met

Ask: Hi team, for Cc1ccsc1C(=O)NCCc1cn(CC(C)C)c2ncccc12 , is the recorded RP-LC retention time at or above 800 s?
Reply: criterion met

Ask: Hi team, for Cc1ccc(-n2ncc3c(=O)n(Cc4nc(-c5ccc(OC(C)C)cc5)no4)cnc32)cc1Cl , is the recorded RP-LC retention time at or above 800 s?
Reply: criterion not met

Ask: Hi team, for COc1ccc(C)cc1NS(=O)(=O)c1ccc(-c2nnc(C3CCC3)o2)o1 , is the recorded RP-LC retention time at or above 800 s?
Reply: criterion met

Ask: Hi team, for CC1(CNC(=O)NCCc2ccccc2)CCOCC1 , is the recorded RP-LC retention time at or above 800 s?
Reply: criterion not met

Ask: Hi team, for COc1ccc(OC)c(Nc2c(-c3ccc(SC)cc3)nc3cnccn23)c1 , is the recorded RP-LC retention time at or above 800 s?
Reply: criterion met

Ask: Hi team, for COc1cc(-c2nnc(-c3cccc(S(=O)(=O)N4CCCC4)c3)o2)cc(OC)c1OC , is the recorded RP-LC retention time at or above 800 s?
Reply: criterion met

Ask: Hi team, for CCCC(=O)N1CCCC1COc1ccc(C(=O)N2CCCC2)cc1 (centres undefined) , is the recorded RP-LC retention time at or above 800 s?
Reply: criterion not met

Ask: Hi team, for CCOCCCNC(=O)c1ccc2c(c1)NC(=O)C1CCCCN21 (centres undefined) , is the recorded RP-LC retention time at or above 800 s?
Reply: criterion not met

Ask: Hi team, for CC(C)N1CCN(C(=O)c2csc(N3CCN(c4ccccc4)CC3)n2)CC1 , is the recorded RP-LC retention time at or above 800 s?
Reply: criterion not met

Source: the METLIN SMRT retention time set (Domingo-Almenara et al. 2019)
